Entry source: patent US20240139185A1

For each record, write down the corresponding IC50.
System: pERK in H358 cells
Assay: pERK inhibition in H358 cells
Type: cell-based, human
Details: 4 hours treatment, read-out: Cellular pERK inhibition

Query: Supply measured IC50 of CC(C)[C@@H](C(=O)N[C@H]1Cc2cc(O)cc(c2)-c2ccc3c(CCC#N)cn(c3c2)C[C@H](C)COC(=O)[C@@H]2CCCN(N2)C1=O)N(C)C(=O)C1CN(C(=O)CCl)C1 [Compound 76] in your reply.
Response: ≤ 1 µM

Query: Supply measured IC50 of CC(C)[C@@H](C(=O)N[C@H]1Cc2cc(O)cc(c2)-c2ccc3c(C(C)(C)C#N)cn(c3c2)CC(C)(C)COC(=O)[C@@H]2CCCN(N2)C1=O)N(C)C(=O)C1(F)CN(C(=O)[C@@H](C)Cl)C1 [Compound 35] in your reply.
Response: > 10 µM

Query: Supply measured IC50 of C=CC(=O)N1CCN([C@H](C(=O)N[C@H]2Cc3cc(O)cc(c3)-c3ccc4cnn(c4c3)CC(C)(C)COC(=O)[C@@H]3CCCN(N3)C2=O)C(C)C)C1=O [Compound 199] in your reply.
Response: > 10 µM

Query: Supply measured IC50 of CC1COC(=O)C2CCCN(N2)C(=O)C(NC(=O)C(C(C)C)N(C)C(=O)C2CN(C(=O)CCl)C2)Cc2cc(O)cc(c2)-c2ccc3c(c2)c(cn3CC2COC2)C1 (mixture of isomers) [Compound 226] in your reply.
Response: 1 to 10 µM

Query: Supply measured IC50 of CC(C)[C@@H](C(=O)N[C@H]1Cc2cc(O)cc(c2)-c2ccc3c(-c4ccnn4C)cn(c3c2)CC(C)(C)COC(=O)[C@@H]2CCCN(N2)C1=O)N(C)C(=O)C1CN(C(=O)CCl)C1 [Compound 239] in your reply.
Response: 1 to 10 µM

Query: Supply measured IC50 of CC(C)[C@@H](C(=O)N[C@H]1Cc2cc(O)cc(c2)-c2ccc3c(Cc4ccccn4)cn(c3c2)C[C@H](C)COC(=O)[C@@H]2CCCN(N2)C1=O)N(C)C(=O)C1CN(C(=O)CCl)C1 [Compound 69] in your reply.
Response: 1 to 10 µM

Query: Supply measured IC50 of CC(C)[C@@H](C(=O)N[C@H]1Cc2cc(O)cc(c2)-c2ccc3c(Cl)nn(c3c2)CC(C)(C)COC(=O)[C@@H]2CCCN(N2)C1=O)N(C)C(=O)C1CN(C(=O)CCl)C1 [Compound 201] in your reply.
Response: ≤ 1 µM

Query: Supply measured IC50 of CC(C)[C@@H](C(=O)N[C@H]1Cc2cc(O)cc(c2)-c2cc3c(ccn3CC(C)(C)COC(=O)[C@@H]3CCCN(N3)C1=O)cn2)N(C)C(=O)C1CN(C(=O)CCl)C1 [Compound 178] in your reply.
Response: > 10 µM

Query: Supply measured IC50 of CC(C)[C@@H](C(=O)N[C@H]1Cc2cc(O)cc(c2)-c2ccc3c(C(C)(C)C#N)cn(c3c2)C[C@H](C)COC(=O)[C@@H]2CCCN(N2)C1=O)N1CC[C@@H](NC(=O)CCl)C1=O [Compound 28] in your reply.
Response: > 10 µM

Query: Supply measured IC50 of C=CC(=O)N1CCC(C(=O)N(C)C(C(=O)NC2Cc3cc(O)cc(c3)-c3ccc4c(c3)c(cn4-c3cc(COC)ccc3C#N)CC(C)(C)COC(=O)C3CCCN(N3)C2=O)C(C)C)C1 (stereo not shown) [Compound 393] in your reply.
Response: 1 to 10 µM
